Taken from paper PMC9330635.

- target: human TMPK (Homo sapiens)
- Sequence (P23919 1-212): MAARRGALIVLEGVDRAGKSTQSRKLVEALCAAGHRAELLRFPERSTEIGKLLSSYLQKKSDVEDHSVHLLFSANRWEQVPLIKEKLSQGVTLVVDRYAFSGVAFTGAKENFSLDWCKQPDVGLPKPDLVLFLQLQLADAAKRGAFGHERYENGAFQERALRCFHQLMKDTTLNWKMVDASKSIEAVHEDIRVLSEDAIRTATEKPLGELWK
measurement-kind: IC50

Incoming: Could you share which IC50 value was measured for `C[C@@H](Nc1ncnc2[nH]c(-c3ccc(O)cc3)cc12)c1ccc(Br)cc1` ?
Outgoing: > 100 µM
